Where these numbers come from: patent US20130303465A1

- protocol_notes: physchem
property_name: solubility

Q: Query (compound): CC(C)C[C@H](NC(=O)[C@H](CCc1ccccc1)NC(=O)CN1CCOCC1)C(=O)N[C@@H](Cc1ccccc1)C(=O)N[C@@H](CC(C)C)C(=O)[C@@]1(C)CO1 [carfilzomib] ; field requested: solubility
Ans: < 10 µg/mL
